# subject_of_test: CYP 1A2 (Homo sapiens, UniProt P05177)
# Construct: from tissue; host or cells: human liver microsomes
# Sequence (P05177 whole entry): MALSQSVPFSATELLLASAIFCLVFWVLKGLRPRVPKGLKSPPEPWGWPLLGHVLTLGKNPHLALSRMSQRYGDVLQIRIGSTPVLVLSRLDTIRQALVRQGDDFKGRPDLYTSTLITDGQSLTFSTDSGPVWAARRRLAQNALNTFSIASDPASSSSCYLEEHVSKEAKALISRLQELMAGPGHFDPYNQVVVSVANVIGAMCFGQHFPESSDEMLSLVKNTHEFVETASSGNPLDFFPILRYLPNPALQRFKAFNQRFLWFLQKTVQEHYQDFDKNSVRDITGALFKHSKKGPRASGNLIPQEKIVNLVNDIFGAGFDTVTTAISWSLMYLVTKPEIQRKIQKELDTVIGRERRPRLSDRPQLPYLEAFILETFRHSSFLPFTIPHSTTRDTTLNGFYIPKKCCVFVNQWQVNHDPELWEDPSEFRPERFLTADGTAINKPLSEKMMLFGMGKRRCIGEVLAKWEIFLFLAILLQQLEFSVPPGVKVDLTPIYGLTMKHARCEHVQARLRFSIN
# assay: CYP inhibition in human liver microsomes, 1A2
# Assay type: in vitro ADME
# test_conditions: pH 7.4, @ 10 μM concn
// reported inhibition at 10 μM for each item listed

INPUT: Give the reported inhibition at 10 μM for this molecule. C=CC(=O)N1CC2CC(n3nc(-c4ccc(C(=O)Nc5cc(C(F)(F)F)ccn5)cc4)c4c(N)ncnc43)CC2C1 (stereo not drawn)
OUTPUT: > 50%

INPUT: Give the reported inhibition at 10 μM for this molecule. C=CC(=O)N1CC2CC(n3nc(-c4ccc(C(=O)Nc5cc(C)ccn5)cc4)c4c(N)ncnc43)CC2C1 (stereo not drawn)
OUTPUT: < 50%

INPUT: Give the reported inhibition at 10 μM for this molecule. CO/C(=N\c1cc(C)ccn1)c1ccc(-c2nn(C3CC4CN(C(=O)/C=C/CN(C)C)CC4C3)c3ncnc(N)c23)cc1 (stereo not drawn)
OUTPUT: < 50%

INPUT: Give the reported inhibition at 10 μM for this molecule. C=CC(=O)N1CC2CC(n3nc(-c4ccc5nc(OC)sc5c4)c4c(N)ncnc43)CC2C1 (stereo not drawn)
OUTPUT: < 50%

INPUT: Give the reported inhibition at 10 μM for this molecule. C=CS(=O)(=O)N1CC2CC(n3nc(-c4ccc(Oc5ccccc5)cc4)c4c(N)ncnc43)CC2C1 (stereo not drawn)
OUTPUT: < 50%

---

# subject_of_test: CYP 1A2 (Homo sapiens, UniProt P05177)
# Construct: from tissue; host or cells: human liver microsomes
# assay: CYP inhibition in human liver microsomes, 1A2
# Format: in vitro ADME
# test_conditions: pH 7.4, @ 10 μM concn
// reported inhibition at 10 μM for each item listed

In the examples that follow, each entry is paired with its recorded inhibition at 10 μM.
C=CC(=O)N1CC2CC(n3nc(-c4ccc5c(c4)OC(F)(F)O5)c4c(N)ncnc43)CC2C1 (stereo not shown) [Compound 36]    < 50%
C=CC(=O)N1CC2CC(n3nc(-c4ccc5ocnc5c4)c4c(N)ncnc43)CC2C1 (stereo not shown) [Compound 22]    < 50%
CN(C)C/C=C/C(=O)N1CC2CC(n3nc(-c4ccc(C(=O)Nc5ccccn5)cc4)c4c(N)ncnc43)CC2C1 (stereo not shown) [Compound 44]    < 50%

As a next step, examine the molecule that follows.
INPUT: Give the reported inhibition at 10 μM for this molecule. CN(C)C/C=C/C(=O)N1CC2CC(n3nc(-c4ccc(Oc5ccccc5)cc4)c4c(N)ncnc43)CC2C1 (stereo not shown) [Compound 24]
OUTPUT: < 50%

---

# subject_of_test: CYP 3A4 (Homo sapiens)
# Construct: from tissue; host or cells: human liver microsomes
# Sequence (P08684 whole entry): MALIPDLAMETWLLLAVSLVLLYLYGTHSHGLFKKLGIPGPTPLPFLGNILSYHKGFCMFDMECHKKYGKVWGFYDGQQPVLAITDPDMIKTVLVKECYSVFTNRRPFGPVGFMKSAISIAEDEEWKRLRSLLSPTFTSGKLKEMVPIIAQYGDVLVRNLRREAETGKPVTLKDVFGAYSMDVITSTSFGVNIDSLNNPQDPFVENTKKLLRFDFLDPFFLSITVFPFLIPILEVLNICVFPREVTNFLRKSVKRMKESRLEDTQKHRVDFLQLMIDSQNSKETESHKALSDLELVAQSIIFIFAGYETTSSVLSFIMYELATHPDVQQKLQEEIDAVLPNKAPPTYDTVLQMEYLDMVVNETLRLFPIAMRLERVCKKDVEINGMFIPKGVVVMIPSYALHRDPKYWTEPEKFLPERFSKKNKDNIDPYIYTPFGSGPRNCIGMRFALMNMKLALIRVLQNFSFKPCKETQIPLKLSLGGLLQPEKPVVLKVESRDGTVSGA
# assay: CYP inhibition in human liver microsomes, 3A4
# Format: in vitro ADME
# test_conditions: pH 7.4, @ 10 μM concn
quantity: inhibition at 10 μM

In the examples that follow, each entry is paired with its recorded inhibition at 10 μM.
C=CC(=O)N1CC2CC(n3nc(-c4ccc(C(=O)Nc5nc6ccccc6s5)cc4)c4c(N)ncnc43)CC2C1 (stereo not drawn)    > 50%
C=CC(=O)N1CC2CC(n3nc(-c4ccc(C(=O)Nc5cc(C)ccn5)cc4)c4c(N)ncnc43)CC2C1 (stereo not drawn)    < 50%
C=CC(=O)N1CC2CC(n3nc(-c4ccc5c(c4)OC(F)(F)O5)c4c(N)ncnc43)CC2C1 (stereo not drawn)    < 50%

INPUT: Give the reported inhibition at 10 μM for this molecule. C=CC(=O)N1CC2CC(n3nc(-c4ccc5nc(-c6ccccc6)sc5c4)c4c(N)ncnc43)CC2C1 (stereo not drawn)
OUTPUT: < 50%

INPUT: Give the reported inhibition at 10 μM for this molecule. CN(C)C/C=C/C(=O)N1CC2CC(n3nc(-c4ccc(-c5nnc(-c6ccccn6)o5)cc4)c4c(N)ncnc43)CC2C1 (stereo not drawn)
OUTPUT: > 50%

INPUT: Give the reported inhibition at 10 μM for this molecule. C=CC(=O)N1CC2CC(n3nc(-c4ccc(Oc5cccnc5)cc4)c4c(N)ncnc43)CC2C1 (stereo not drawn)
OUTPUT: > 50%

INPUT: Give the reported inhibition at 10 μM for this molecule. C=CC(=O)N1CC2CC(n3nc(-c4ccc(C(=O)Nc5cc(C(F)(F)F)ccn5)cc4)c4c(N)ncnc43)CC2C1 (stereo not drawn)
OUTPUT: < 50%

INPUT: Give the reported inhibition at 10 μM for this molecule. CO/C(=N\c1cc(C)ccn1)c1ccc(-c2nn(C3CC4CN(C(=O)/C=C/CN(C)C)CC4C3)c3ncnc(N)c23)cc1 (stereo not drawn)
OUTPUT: > 50%

INPUT: Give the reported inhibition at 10 μM for this molecule. C=CC(=O)N1CC2CC(n3nc(-c4ccc5nc(C)sc5c4)c4c(N)ncnc43)CC2C1 (stereo not drawn)
OUTPUT: > 50%

INPUT: Give the reported inhibition at 10 μM for this molecule. C=CC(=O)N1CC2CC(n3nc(-c4ccc5nc(NC(C)=O)sc5c4)c4c(N)ncnc43)CC2C1 (stereo not drawn)
OUTPUT: > 50%

INPUT: Give the reported inhibition at 10 μM for this molecule. C=CC(=O)N1CC2CC(n3nc(-c4ccc(-c5nnc(-c6cnccn6)s5)cc4)c4c(N)ncnc43)CC2C1 (stereo not drawn)
OUTPUT: < 50%

INPUT: Give the reported inhibition at 10 μM for this molecule. CN(C)C/C=C/C(=O)N1CC2CC(n3nc(-c4ccc(Oc5ccccc5)cc4)c4c(N)ncnc43)CC2C1 (stereo not drawn)
OUTPUT: < 50%
